// reported IC50 for each item listed
# Measured on: ERK2 enzyme (Homo sapiens (Human))
# Test summary: Inhibition assay of ERK (Z'-LYTE kinase assay, Ser/Thr 3 peptide substrate)
# Format: biochemical
# Study conditions: In vitro ERK2 enzyme, 100 μM ATP

Check out these entries, answers already filled in.
- Molecule: "COc1ccc(-c2n[nH]c3cc4c(cc23)CN(Cc2ccc(F)cc2F)C(=O)N4)cn1"
  Result: "< 50 nM"
- Molecule: "Cc1cc(-c2n[nH]c3cc4c(cc23)CN(Cc2ccc(C(F)(F)F)cc2)C(=O)N4)ccn1"
  Result: "50 to 250 nM"
- Molecule: "Cc1cc(-c2n[nH]c3cc4[nH]c(=O)c(C(C)c5ccc(F)cc5)cc4cc23)ccn1 (stereo not shown)"
  Result: "< 50 nM"

IC50 recorded for this molecule, O=C1Nc2cc3[nH]nc(-c4ccnnc4)c3cc2CN1Cc1cc(F)cc(F)c1 , is < 50 nM

====

# Measured on: ERK2 enzyme (Homo sapiens (Human))
# Test summary: Inhibition assay of ERK (Z'-LYTE kinase assay, Ser/Thr 3 peptide substrate)
# Assay type: biochemical
# Study conditions: In vitro ERK2 enzyme, 100 μM ATP
pIC50: −log10 of the molar value.
// reported pIC50 for each item listed

Check out these entries, answers already filled in.
- Smiles input: "Cc1cc(-c2n[nH]c3cc4c(cc23)CN([C@@H]2CCCN(Cc3cc(F)cc(F)c3)C2)C(=O)N4)ccn1"
  Quantity measured: "pIC50"
  Result: "> 7.30"
- Smiles input: "O=C1Nc2cc3[nH]nc(Br)c3cc2CN1Cc1cccc(Cl)c1"
  Quantity measured: "pIC50"
  Result: "6.00 to 6.60"
- Smiles input: "O=C1Nc2cc3[nH]nc(Br)c3cc2CN1Cc1ccc(F)cc1"
  Quantity measured: "pIC50"
  Result: "6.00 to 6.60"

Now let's try a different one.
pIC50 recorded for this molecule, COc1ncc(-c2n[nH]c3cc4c(cc23)CN(Cc2cccc(Cl)c2)C(=O)N4)cn1 , is > 7.30

====

# Measured on: ERK2 enzyme (Homo sapiens (Human))
# Test summary: Inhibition assay of ERK (Z'-LYTE kinase assay, Ser/Thr 3 peptide substrate)
# Format: biochemical
# Study conditions: In vitro ERK2 enzyme, 100 μM ATP
pIC50: −log10 of the molar value.
// reported pIC50 for each item listed

- Compound: "COc1ccc(-c2n[nH]c3cc4c(cc23)CN(Cc2ccc(F)cc2)C(=O)N4)cn1 [Compound 76]"
  Result: "> 7.30"
- Compound: "COc1ncc(-c2n[nH]c3cc4c(cc23)CN(Cc2cccc(C#N)c2)C(=O)N4)cn1 [Compound 125]"
  Result: "> 7.30"

pIC50 recorded for this compound, COc1ncc(-c2n[nH]c3cc4c(cc23)CCN(Cc2ccc(F)cc2)C(=O)N4)cn1 [Compound 130] , is 6.60 to 7.30

pIC50 recorded for this compound, O=C1Nc2cc3[nH]nc(-c4ccnnc4)c3cc2CN1Cc1ccc(F)cc1 [Compound 97] , is > 7.30

pIC50 recorded for this compound, Cc1cc(-c2n[nH]c3cc4[nH]c(=O)c(C(C)c5cccc(Cl)c5)cc4cc23)ccn1 (centres unmarked) [Compound 181] , is 6.60 to 7.30

pIC50 recorded for this compound, COc1ncccc1CN1CCC[C@@H](N2Cc3cc4c(-c5ccnc(C)c5)n[nH]c4cc3NC2=O)C1 [Compound 150] , is > 7.30

pIC50 recorded for this compound, O=C1Nc2cc3[nH]nc(N4CCOCC4)c3cc2CN1Cc1cccc(Cl)c1 [Compound 78] , is > 7.30

pIC50 recorded for this compound, O=C1Nc2cc3[nH]nc(-c4ccccn4)c3cc2CN1Cc1cccc(Cl)c1 [Compound 91] , is 6.60 to 7.30

====

// reported IC50 for each item listed
# Measured on: ERK2 enzyme (Homo sapiens (Human))
# Test summary: Inhibition assay of ERK (Z'-LYTE kinase assay, Ser/Thr 3 peptide substrate)
# Format: biochemical
# Study conditions: In vitro ERK2 enzyme, 100 μM ATP

- Compound: "CCC(c1ccccc1)c1cc2cc3c(-c4ccnc(C)c4)n[nH]c3cc2[nH]c1=O (stereo not shown) [Compound 64]"
  Measured on: "ERK2 enzyme (Homo sapiens (Human))"
  IC50: "< 50 nM"

Test item COc1ncc(-c2n[nH]c3cc4c(cc23)CN([C@H](CO)c2cccc(Cl)c2)C(=O)N4)cn1 [Compound 118] ; ERK2 enzyme (Homo sapiens (Human)); reported IC50 was < 50 nM

Test item Cc1cc(-c2n[nH]c3cc4c(cc23)CN([C@H](CO)c2cccc(Cl)c2)C(=O)N4)ccn1 [Compound 26] ; ERK2 enzyme (Homo sapiens (Human)); reported IC50 was < 50 nM

Test item Cc1cc(-c2n[nH]c3cc4c(cc23)CN([C@H](C)c2ccc(F)cc2)C(=O)N4)ccn1 [Compound 5] ; ERK2 enzyme (Homo sapiens (Human)); reported IC50 was 50 to 250 nM

====

# Measured on: UniProt:P28482
# Test summary: Inhibition assay of ERK (Z'-LYTE kinase assay, Ser/Thr 3 peptide substrate)
# Format: biochemical
# Study conditions: In vitro ERK2 enzyme, 100 μM ATP
// reported IC50 for each item listed

Check out these entries, answers already filled in.
- Compound: "O=C1Nc2cc3[nH]nc(-c4ccnnc4)c3cc2CN1[C@@H]1CCCN(Cc2c(F)cccc2F)C1 [Compound 122]"
  IC50: "< 50 nM"
- Compound: "O=C1Nc2cc3[nH]nc(C4CC4)c3cc2CN1Cc1ccc(F)c(Cl)c1 [Compound 42]"
  IC50: "50 to 250 nM"
- Compound: "Cc1cc(-c2n[nH]c3cc4[nH]c(=O)n(Cc5ccccc5)c4cc23)ccn1 [Compound 19]"
  IC50: "< 50 nM"

Now let's try a different one.
IC50 recorded for this compound, Cc1cc(-c2n[nH]c3cc4c(cc23)CN([C@@H]2CCCN(CCc3cccc(Cl)c3)C2)C(=O)N4)ccn1 [Compound 164] , is < 50 nM

====

# Measured on: ERK2 enzyme (Homo sapiens (Human))
# Test summary: Inhibition assay of ERK (Z'-LYTE kinase assay, Ser/Thr 3 peptide substrate)
# Format: biochemical
# Study conditions: In vitro ERK2 enzyme, 100 μM ATP
Quantity measured: IC50

- Compound: "O=C1Nc2cc3[nH]nc(-c4ccc5nncn5c4)c3cc2CN1Cc1cccc(Cl)c1 [Compound 59]"
  Quantity measured: "IC50"
  Result: "< 50 nM"
- Compound: "Cc1cc(-c2n[nH]c3cc4c(cc23)CN([C@@H]2CCCN(Cc3cc(C(C)(C)C)no3)C2)C(=O)N4)ccn1 [Compound 186]"
  Quantity measured: "IC50"
  Result: "50 to 250 nM"
- Compound: "CCC(=O)NCCN1Cc2cc3c(-c4cnc(OC)nc4)n[nH]c3cc2NC1=O [Compound 106]"
  Quantity measured: "IC50"
  Result: "50 to 250 nM"
- Compound: "Cc1cc(-c2n[nH]c3cc4c(cc23)CN(C2CCN(Cc3ccccc3)CC2)C(=O)N4)ccn1 [Compound 70]"
  Quantity measured: "IC50"
  Result: "< 50 nM"
- Compound: "Cc1cc(-c2n[nH]c3cc4c(cc23)CN([C@@H]2CCCN(C)C2)C(=O)N4)ccn1 [Compound 33]"
  Quantity measured: "IC50"
  Result: "< 50 nM"
- Compound: "COc1ncc(-c2n[nH]c3cc4c(cc23)CN(CC2CCNCC2)C(=O)N4)cn1 [Compound 81]"
  Quantity measured: "IC50"
  Result: "250 to 1000 nM"
- Compound: "Cc1cc(-c2n[nH]c3cc4c(cc23)CN([C@@H]2CCCN(CCc3ccc(F)cc3)C2)C(=O)N4)ccn1 [Compound 167]"
  Quantity measured: "IC50"
  Result: "50 to 250 nM"
- Compound: "Cc1cc(-c2n[nH]c3cc4c(cc23)CN([C@@H]2CCCN(C(=O)c3cccc(Cl)c3)C2)C(=O)N4)ccn1 [Compound 152]"
  Quantity measured: "IC50"
  Result: "< 50 nM"

IC50 recorded for this compound, COc1ncc(-c2n[nH]c3cc4c(cc23)CN([C@@H]2CCCN(Cc3ccccc3F)C2)C(=O)N4)cn1 [Compound 101] , is < 50 nM

IC50 recorded for this compound, C[C@H](c1ccc(Cl)cc1)N1Cc2cc3c(-c4ccnnc4)n[nH]c3cc2NC1=O [Compound 115] , is < 50 nM

====

# Measured on: ERK2 enzyme (Homo sapiens (Human), UniProt P28482)
# Sequence (P28482 whole entry): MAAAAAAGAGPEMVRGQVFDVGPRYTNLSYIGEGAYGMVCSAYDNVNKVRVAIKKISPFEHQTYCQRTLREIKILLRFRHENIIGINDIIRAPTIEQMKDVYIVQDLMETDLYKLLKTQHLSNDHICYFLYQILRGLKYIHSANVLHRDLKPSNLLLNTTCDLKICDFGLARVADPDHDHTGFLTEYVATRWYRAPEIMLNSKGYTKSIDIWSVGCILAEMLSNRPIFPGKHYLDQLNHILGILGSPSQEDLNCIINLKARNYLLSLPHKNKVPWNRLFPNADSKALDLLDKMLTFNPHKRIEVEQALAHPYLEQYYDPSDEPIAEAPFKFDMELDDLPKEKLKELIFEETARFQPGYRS
# Test summary: Inhibition assay of ERK (Z'-LYTE kinase assay, Ser/Thr 3 peptide substrate)
# Format: biochemical
# Study conditions: In vitro, ERK2 enzyme 0.47 ng/μL, 100 μM ATP
# Protocol: The inhibition of ERK activity by the compounds disclosed herein was determined using the Z′-LYTE kinase assay kit (Life Technologies) with a Ser/Thr 3 peptide substrate (Life Technologies) according to manufacturers' instructions. […] The IC50 values for the compounds were determined with 3-fold serial dilutions in duplicate. […] The final DMSO concentration in the assay was 1%. Final reaction volume was 20 μL/well in 384-well plates. […]
pIC50: −log10 of the molar value.
Quantity measured: pIC50

- Compound: "Cc1cc(-c2n[nH]c3cc4[nH]c(=O)c(C5CCCN(Cc6cc(F)ccc6F)C5)cc4cc23)ccn1 (stereo not shown) [Compound 336]"
  Measured on: "ERK2 enzyme (Homo sapiens (Human), UniProt P28482)"
  pIC50: "> 7.30"
- Compound: "Cn1nccc1-c1n[nH]c2cc3c(cc12)CN([C@@H]1CN(CC(F)(F)F)C[C@H]1c1ccccc1)C(=O)N3 [Compound 350]"
  Measured on: "ERK2 enzyme (Homo sapiens (Human), UniProt P28482)"
  pIC50: "6.00 to 6.60"
- Compound: "Cn1cc(-c2n[nH]c3cc4c(cc23)CN([C@@H]2CCCN(Cc3ccc(F)cc3F)C2)C(=O)N4)cn1 [Compound 281]"
  Measured on: "ERK2 enzyme (Homo sapiens (Human), UniProt P28482)"
  pIC50: "> 7.30"

Now let's try a different one.
pIC50 recorded for this compound, Cc1cc(-c2n[nH]c3cc4c(cc23)CN([C@@H]2CN(CC(F)(F)F)C[C@H]2C(C)C)C(=O)N4)ccn1 (mixture of isomers) [Compound 322] , is 6.60 to 7.30
